Target: His-tagged recombinant human TrkA (Homo sapiens (Human))
Sequence (P04629 440-796): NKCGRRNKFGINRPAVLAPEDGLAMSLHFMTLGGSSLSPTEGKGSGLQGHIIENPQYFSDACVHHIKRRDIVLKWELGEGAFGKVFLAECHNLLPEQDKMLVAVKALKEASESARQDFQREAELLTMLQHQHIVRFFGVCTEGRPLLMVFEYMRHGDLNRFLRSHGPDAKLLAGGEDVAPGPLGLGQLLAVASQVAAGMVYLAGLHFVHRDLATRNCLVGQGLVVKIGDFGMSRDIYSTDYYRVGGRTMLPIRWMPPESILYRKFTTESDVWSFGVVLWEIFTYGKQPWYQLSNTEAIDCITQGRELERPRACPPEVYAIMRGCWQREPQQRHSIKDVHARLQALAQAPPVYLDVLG
Test: TrkA LanthaScreen Eu Kinase Binding Assay
Conditions: averaged IC50; TR-FRET binding, 60 min, 22° C.; read-out: TrkA Enzyme IC50
Measured IC50 by item

>  <Compound>
Cc1nn(-c2ccccc2)c(NC(=O)NC2CN(CC(F)(F)F)C(=O)c3ccccc32)c1C (stereo not shown)

>  <Reported Value>
< 100 nM

$$$$
>  <Compound>
Cc1c(-c2cnn(C)c2)nn(-c2ccccc2)c1NC(=O)N[C@@H]1c2ccccc2C(C)(C)C[C@H]1O (relative stereo)

>  <Reported Value>
< 100 nM

$$$$
>  <Compound>
Cc1c(CCO)nn(-c2ccccc2)c1NC(=O)N[C@@H]1c2ccccc2C(C)(C)C[C@H]1O

>  <Reported Value>
< 100 nM

$$$$
>  <Compound>
Cc1c(OC[C@H]2CN(C)CCO2)nn(-c2ccccc2)c1NC(=O)N[C@@H]1c2ccccc2C(C)(C)C[C@H]1O

>  <Reported Value>
< 100 nM

$$$$
>  <Compound>
COc1ncc(-c2nn(-c3ccccc3)c(NC(=O)N[C@@H]3c4ccccc4C4(CC4)[C@H]3O)c2C)cn1 (relative stereo)

>  <Reported Value>
< 100 nM

$$$$

Form field IC50, entry Cc1c(-c2cnn(C)c2)nn(-c2ccccc2)c1NC(=O)N[C@@H]1c2ccccc2C2(CC2)[C@H]1O (relative stereo) [Example 55] : < 100 nM

Quick note, IC50 for `CO[C@@H]1[C@@H](O)[C@H](NC(=O)Nc2c(C)c(-c3cnn(C)c3)nn2-c2ccccc2)c2ccccc2C1(C)C` landed at < 100 nM

Measured IC50 of Cc1c(OCC2CCN(C)CC2)nn(-c2ccccc2)c1NC(=O)N[C@@H]1c2ccccc2C(C)(C)C[C@H]1O (relative stereo) : < 100 nM

Noted for COc1nn(-c2ccccc2)c(NC(=O)N[C@@H]2c3ccccc3C(C)(C)C[C@H]2O)c1C (relative stereo) [Example 97] : its IC50 reads < 100 nM

Reported IC50 ( Cc1c(-c2cnn(C)c2)nn(-c2ccccc2)c1NC(=O)NC1CCOc2ccccc21 (stereo not shown) ) = 100 to 1000 nM

Entry Cc1c(-c2cnn(C)c2)nn(-c2ccccc2)c1NC(=O)N[C@@H]1c2ccccc2CC[C@H]1O (relative stereo) — recorded IC50 = < 100 nM

Form field IC50, entry Cc1ncc(-c2nn(-c3ccccc3)c(NC(=O)N[C@@H]3c4ccccc4CC[C@H]3O)c2C)cn1 (relative stereo) : < 100 nM

Data point: CC(=O)N1CCc2ccccc2C(NC(=O)Nc2c(C)c(-c3cnn(C)c3)nn2-c2ccccc2)C1 (stereo not shown) ; IC50 = 100 to 1000 nM

====

Biological target: EphA4 (Homo sapiens (Human), UniProt P54764)
Sequence (P54764 20-986): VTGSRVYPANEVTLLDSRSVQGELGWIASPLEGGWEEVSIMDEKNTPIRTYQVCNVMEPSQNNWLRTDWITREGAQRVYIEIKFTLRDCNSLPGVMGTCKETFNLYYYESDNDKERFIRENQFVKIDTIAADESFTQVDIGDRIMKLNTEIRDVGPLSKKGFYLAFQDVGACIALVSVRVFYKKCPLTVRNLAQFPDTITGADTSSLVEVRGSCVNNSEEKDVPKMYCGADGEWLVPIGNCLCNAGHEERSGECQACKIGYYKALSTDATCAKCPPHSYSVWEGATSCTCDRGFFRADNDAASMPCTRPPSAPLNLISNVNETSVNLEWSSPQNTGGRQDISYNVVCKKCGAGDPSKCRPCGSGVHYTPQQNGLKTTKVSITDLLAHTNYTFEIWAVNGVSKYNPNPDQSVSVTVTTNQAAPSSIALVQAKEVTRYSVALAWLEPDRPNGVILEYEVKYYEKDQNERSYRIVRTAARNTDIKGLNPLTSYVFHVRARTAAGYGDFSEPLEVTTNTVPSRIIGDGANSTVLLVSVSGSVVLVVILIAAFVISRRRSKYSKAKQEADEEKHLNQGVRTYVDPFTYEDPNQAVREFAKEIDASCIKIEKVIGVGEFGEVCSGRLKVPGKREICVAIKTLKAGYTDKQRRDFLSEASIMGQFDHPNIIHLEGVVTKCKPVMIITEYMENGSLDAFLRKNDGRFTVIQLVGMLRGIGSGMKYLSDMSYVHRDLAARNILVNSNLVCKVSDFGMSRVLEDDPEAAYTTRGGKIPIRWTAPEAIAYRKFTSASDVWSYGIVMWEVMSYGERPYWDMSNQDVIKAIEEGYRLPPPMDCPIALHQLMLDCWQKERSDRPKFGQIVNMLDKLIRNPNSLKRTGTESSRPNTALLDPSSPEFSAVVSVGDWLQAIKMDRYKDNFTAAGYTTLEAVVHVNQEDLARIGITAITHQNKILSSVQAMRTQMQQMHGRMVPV
Assay: KinaseProfiler off-target kinase profiling
Assay type: biochemical
Details: 10 μM, ATP near Km
Readout Label: Avg. POC
In your response, the unit should come after the numeric value.

>  <Compound>
Cc1c(-c2cnn(C)c2)nn(-c2ccccc2)c1NC(=O)N[C@H]1CCCc2ccccc21

>  <Avg. POC>
111.5 POC

$$$$
>  <Compound>
Cc1c(-c2ccc(=O)n(C)c2)nn(-c2ccccc2)c1NC(=O)NC1CN(CC(F)(F)F)Cc2ccccc21 (stereo not shown)

>  <Avg. POC>
110 POC

$$$$
>  <Compound>
Cc1c(-c2cnn(C)c2)nn(-c2ccccc2)c1NC(=O)NC1CCOc2cc(F)ccc21 (stereo not shown)

>  <Avg. POC>
114.5 POC

$$$$

Let's switch to this compound now.
The reported value for COCc1ccc2c(c1)C(NC(=O)Nc1c(C)c(-c3cnn(C)c3)nn1-c1ccccc1)COC2 (stereo not shown) in terms of Avg. POC is 103 POC

====

Target: PAK5 (Homo sapiens (Human))
Sequence (Q9P286 whole entry): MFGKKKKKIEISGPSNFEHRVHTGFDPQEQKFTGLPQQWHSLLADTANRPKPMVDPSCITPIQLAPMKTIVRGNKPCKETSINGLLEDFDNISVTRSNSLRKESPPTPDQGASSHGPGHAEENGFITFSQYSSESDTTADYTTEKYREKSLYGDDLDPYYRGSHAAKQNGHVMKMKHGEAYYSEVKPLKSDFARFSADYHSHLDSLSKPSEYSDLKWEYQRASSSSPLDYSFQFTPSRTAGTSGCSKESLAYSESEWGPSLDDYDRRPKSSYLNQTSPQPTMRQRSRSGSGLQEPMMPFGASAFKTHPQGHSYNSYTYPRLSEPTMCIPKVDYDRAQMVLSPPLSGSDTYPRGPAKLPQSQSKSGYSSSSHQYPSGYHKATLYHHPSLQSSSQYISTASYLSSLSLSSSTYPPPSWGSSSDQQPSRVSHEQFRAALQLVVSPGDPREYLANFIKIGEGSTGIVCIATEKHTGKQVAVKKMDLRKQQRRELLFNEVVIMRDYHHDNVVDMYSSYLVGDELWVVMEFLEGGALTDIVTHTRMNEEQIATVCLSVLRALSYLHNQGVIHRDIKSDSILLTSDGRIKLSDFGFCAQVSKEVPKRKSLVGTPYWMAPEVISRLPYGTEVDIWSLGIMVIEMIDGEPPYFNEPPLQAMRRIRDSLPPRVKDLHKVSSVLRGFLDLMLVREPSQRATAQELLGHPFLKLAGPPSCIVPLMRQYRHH
Experiment: KinaseProfiler off-target kinase profiling
Type: biochemical
Conditions: 10 μM, ATP near Km
Experimental: Representative compounds (Examples 12, 32, 26 and 2) of the invention were tested for off-target kinase activity at a concentration of 10 μM by Millipore, Inc. in their KinaseProfiler™ service against all the kinases available in their full kinase panel. Compounds were run in duplicate at a concentration of ATP near the Km for each individual kinase according to Millipore's specifications. […]
Let's look at some compounds and their measured Avg. POC.
Response body: numeric value in POC, unit text excluded.

>  <Compound>
Cc1c(-c2cnn(C)c2)nn(-c2ccccc2)c1NC(=O)N[C@H]1CCCc2ccccc21 [Example 2]

>  <Readout Label>
Avg. POC

>  <Unit Of Measure>
POC

>  <Reported Value>
109.5

$$$$
>  <Compound>
Cc1c(-c2ccc(=O)n(C)c2)nn(-c2ccccc2)c1NC(=O)NC1CN(CC(F)(F)F)Cc2ccccc21 (stereo not shown) [Example 26]

>  <Readout Label>
Avg. POC

>  <Unit Of Measure>
POC

>  <Reported Value>
121.5

$$$$
>  <Compound>
Cc1c(-c2cnn(C)c2)nn(-c2ccccc2)c1NC(=O)NC1CCOc2cc(F)ccc21 (stereo not shown) [Example 12]

>  <Readout Label>
Avg. POC

>  <Unit Of Measure>
POC

>  <Reported Value>
143

$$$$

Please examine the following record next.
The compound listed as COCc1ccc2c(c1)C(NC(=O)Nc1c(C)c(-c3cnn(C)c3)nn1-c1ccccc1)COC2 (stereo not shown) [Example 32] has a reported Avg. POC of 111

====

# reported Avg. POC; entries follow
Biological target: MSK1 (Homo sapiens (Human), UniProt O75582)
Sequence (O75582 whole entry): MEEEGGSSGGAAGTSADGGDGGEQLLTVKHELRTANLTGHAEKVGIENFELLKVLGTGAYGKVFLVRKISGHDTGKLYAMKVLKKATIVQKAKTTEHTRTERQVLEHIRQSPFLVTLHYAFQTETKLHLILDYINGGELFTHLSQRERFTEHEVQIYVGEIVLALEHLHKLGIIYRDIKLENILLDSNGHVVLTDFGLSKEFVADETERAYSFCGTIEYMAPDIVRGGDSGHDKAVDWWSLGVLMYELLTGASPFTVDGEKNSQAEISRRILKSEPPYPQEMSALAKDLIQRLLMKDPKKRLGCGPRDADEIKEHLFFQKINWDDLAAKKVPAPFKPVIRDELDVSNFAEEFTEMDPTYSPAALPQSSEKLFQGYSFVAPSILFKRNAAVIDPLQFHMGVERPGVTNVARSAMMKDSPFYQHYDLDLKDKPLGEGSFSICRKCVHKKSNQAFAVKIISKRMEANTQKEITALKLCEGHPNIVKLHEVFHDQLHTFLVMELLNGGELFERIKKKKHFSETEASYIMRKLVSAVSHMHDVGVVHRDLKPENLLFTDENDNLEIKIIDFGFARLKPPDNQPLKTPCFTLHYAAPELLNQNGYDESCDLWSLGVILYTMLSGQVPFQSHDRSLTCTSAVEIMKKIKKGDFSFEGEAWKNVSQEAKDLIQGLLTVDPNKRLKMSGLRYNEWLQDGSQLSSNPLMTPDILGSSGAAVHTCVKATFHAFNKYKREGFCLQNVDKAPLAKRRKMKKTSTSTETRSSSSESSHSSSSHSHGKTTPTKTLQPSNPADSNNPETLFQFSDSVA
Assay: KinaseProfiler off-target kinase profiling
Format: biochemical
Conditions: 10 μM, ATP near Km
Report only the number, with the unit POC understood.

>  <Compound>
Cc1c(-c2cnn(C)c2)nn(-c2ccccc2)c1NC(=O)NC1CCOc2cc(F)ccc21 (stereo not shown)

>  <Avg. POC (POC)>
127.5

$$$$

Recorded result, Cc1c(-c2ccc(=O)n(C)c2)nn(-c2ccccc2)c1NC(=O)NC1CN(CC(F)(F)F)Cc2ccccc21 (stereo not shown) , Avg. POC: 114

The value of Avg. POC measured for the compound COCc1ccc2c(c1)C(NC(=O)Nc1c(C)c(-c3cnn(C)c3)nn1-c1ccccc1)COC2 (stereo not shown) turned out to be 118

Per the records, this compound ( `Cc1c(-c2cnn(C)c2)nn(-c2ccccc2)c1NC(=O)N[C@H]1CCCc2ccccc21` ) has Avg. POC equal to 113.5

====

In this section we review reported Avg. POC values for a set of compounds.
Biological target: SGK2 (Homo sapiens (Human), UniProt Q9HBY8)
Sequence (Q9HBY8 whole entry): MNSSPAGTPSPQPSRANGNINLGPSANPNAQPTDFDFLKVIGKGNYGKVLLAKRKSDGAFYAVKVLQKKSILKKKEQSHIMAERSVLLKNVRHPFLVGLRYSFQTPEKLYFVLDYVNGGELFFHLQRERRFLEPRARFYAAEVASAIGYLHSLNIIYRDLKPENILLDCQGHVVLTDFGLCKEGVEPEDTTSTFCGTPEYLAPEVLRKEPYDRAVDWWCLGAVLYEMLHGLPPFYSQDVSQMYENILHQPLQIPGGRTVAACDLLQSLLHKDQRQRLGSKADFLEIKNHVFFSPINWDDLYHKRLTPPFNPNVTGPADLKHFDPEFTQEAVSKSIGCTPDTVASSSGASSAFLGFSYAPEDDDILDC
Test: KinaseProfiler off-target kinase profiling
Assay type: biochemical
Details: 10 μM, ATP near Km
Could you give me the number in POC? Just the number is fine.

Some solved entries appear below for comparison.
>  <Compound>
COCc1ccc2c(c1)C(NC(=O)Nc1c(C)c(-c3cnn(C)c3)nn1-c1ccccc1)COC2 (stereo not shown) [Example 32]

>  <Readout Label>
Avg. POC

>  <Reported Value>
123.5

$$$$
>  <Compound>
Cc1c(-c2cnn(C)c2)nn(-c2ccccc2)c1NC(=O)N[C@H]1CCCc2ccccc21 [Example 2]

>  <Readout Label>
Avg. POC

>  <Reported Value>
166.5

$$$$
>  <Compound>
Cc1c(-c2ccc(=O)n(C)c2)nn(-c2ccccc2)c1NC(=O)NC1CN(CC(F)(F)F)Cc2ccccc21 (stereo not shown) [Example 26]

>  <Readout Label>
Avg. POC

>  <Reported Value>
123.5

$$$$

Switching to the query record.
Record Cc1c(-c2cnn(C)c2)nn(-c2ccccc2)c1NC(=O)NC1CCOc2cc(F)ccc21 (stereo not shown) [Example 12] . Reported Avg. POC: 148

====

Target: Flt3 (Homo sapiens (Human))
Sequence (P36888 27-993): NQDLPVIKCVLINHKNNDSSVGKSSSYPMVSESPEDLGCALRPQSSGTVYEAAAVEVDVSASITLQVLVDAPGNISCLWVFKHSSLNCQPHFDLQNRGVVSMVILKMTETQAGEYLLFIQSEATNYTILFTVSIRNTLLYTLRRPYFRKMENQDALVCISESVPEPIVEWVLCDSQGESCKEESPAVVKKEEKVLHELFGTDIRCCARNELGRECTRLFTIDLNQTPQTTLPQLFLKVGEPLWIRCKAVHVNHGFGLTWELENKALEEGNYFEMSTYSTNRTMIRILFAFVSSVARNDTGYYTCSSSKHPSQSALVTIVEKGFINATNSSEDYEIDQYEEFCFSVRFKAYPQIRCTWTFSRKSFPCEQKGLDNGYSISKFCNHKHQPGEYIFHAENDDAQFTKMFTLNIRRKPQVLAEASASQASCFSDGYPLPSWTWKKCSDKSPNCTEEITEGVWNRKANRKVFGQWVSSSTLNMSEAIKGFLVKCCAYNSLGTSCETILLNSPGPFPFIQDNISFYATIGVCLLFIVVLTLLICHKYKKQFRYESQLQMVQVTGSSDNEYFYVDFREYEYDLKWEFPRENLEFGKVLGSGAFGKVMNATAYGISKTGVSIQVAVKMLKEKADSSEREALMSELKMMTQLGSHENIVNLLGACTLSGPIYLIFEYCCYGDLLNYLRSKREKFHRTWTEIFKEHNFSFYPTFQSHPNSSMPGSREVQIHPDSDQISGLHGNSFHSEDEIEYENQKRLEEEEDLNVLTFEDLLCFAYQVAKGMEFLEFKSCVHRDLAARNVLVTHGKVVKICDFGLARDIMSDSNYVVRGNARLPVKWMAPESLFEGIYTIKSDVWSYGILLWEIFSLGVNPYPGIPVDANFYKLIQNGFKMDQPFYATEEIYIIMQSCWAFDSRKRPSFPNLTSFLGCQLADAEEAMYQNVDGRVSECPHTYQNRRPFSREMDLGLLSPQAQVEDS
Assay: KinaseProfiler off-target kinase profiling
Assay type: biochemical
Details: 10 μM, ATP near Km
Reported Avg. POC by item:
Give the number; POC is assumed, so skip it.

>  <Compound>
Cc1c(-c2ccc(=O)n(C)c2)nn(-c2ccccc2)c1NC(=O)NC1CN(CC(F)(F)F)Cc2ccccc21 (stereo not shown) [Example 26]

>  <Readout Label>
Avg. POC

>  <Reported Value>
97.5

$$$$
>  <Compound>
COCc1ccc2c(c1)C(NC(=O)Nc1c(C)c(-c3cnn(C)c3)nn1-c1ccccc1)COC2 (stereo not shown) [Example 32]

>  <Readout Label>
Avg. POC

>  <Reported Value>
115

$$$$
>  <Compound>
Cc1c(-c2cnn(C)c2)nn(-c2ccccc2)c1NC(=O)N[C@H]1CCCc2ccccc21 [Example 2]

>  <Readout Label>
Avg. POC

>  <Reported Value>
96.5

$$$$

The compound listed as Cc1c(-c2cnn(C)c2)nn(-c2ccccc2)c1NC(=O)NC1CCOc2cc(F)ccc21 (stereo not shown) [Example 12] shows Avg. POC equal to 90

====

Target: UniProt P23443
Sequence (P23443 whole entry): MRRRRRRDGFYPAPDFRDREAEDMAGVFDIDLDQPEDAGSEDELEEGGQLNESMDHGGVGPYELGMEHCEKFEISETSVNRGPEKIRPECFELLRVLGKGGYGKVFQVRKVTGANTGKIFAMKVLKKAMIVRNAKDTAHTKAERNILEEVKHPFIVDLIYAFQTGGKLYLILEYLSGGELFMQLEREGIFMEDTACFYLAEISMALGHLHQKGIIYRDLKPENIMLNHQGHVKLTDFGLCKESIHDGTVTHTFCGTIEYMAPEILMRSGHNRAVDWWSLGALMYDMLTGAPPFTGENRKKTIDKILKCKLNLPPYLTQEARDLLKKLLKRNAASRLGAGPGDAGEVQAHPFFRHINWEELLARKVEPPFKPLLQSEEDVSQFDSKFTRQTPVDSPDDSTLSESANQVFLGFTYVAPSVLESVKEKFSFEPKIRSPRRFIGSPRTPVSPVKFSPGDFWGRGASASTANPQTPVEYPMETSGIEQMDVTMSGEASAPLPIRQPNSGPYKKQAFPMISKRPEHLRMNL
Test: KinaseProfiler off-target kinase profiling
Type: biochemical
Conditions: 10 μM, ATP near Km
Each entry below lists one item and its recorded Avg. POC value.
The figure you give is taken to be in POC; do not add the unit.

>  <Compound>
Cc1c(-c2cnn(C)c2)nn(-c2ccccc2)c1NC(=O)NC1CCOc2cc(F)ccc21 (stereo not shown)

>  <Target Entity>
UniProt P23443

>  <Avg. POC (POC)>
124.5

$$$$
>  <Compound>
Cc1c(-c2cnn(C)c2)nn(-c2ccccc2)c1NC(=O)N[C@H]1CCCc2ccccc21

>  <Target Entity>
UniProt P23443

>  <Avg. POC (POC)>
172

$$$$
>  <Compound>
Cc1c(-c2ccc(=O)n(C)c2)nn(-c2ccccc2)c1NC(=O)NC1CN(CC(F)(F)F)Cc2ccccc21 (stereo not shown)

>  <Target Entity>
UniProt P23443

>  <Avg. POC (POC)>
116

$$$$

Shifting focus to the compound that follows.
Let me check: COCc1ccc2c(c1)C(NC(=O)Nc1c(C)c(-c3cnn(C)c3)nn1-c1ccccc1)COC2 (stereo not shown) , system UniProt P23443, measured Avg. POC is 110.5

The origin of these recorded values is patent US10351575B2.
